src = PubChem BioAssay (NCI)

tested on: HOP-92 NSCLC; experiment: NCI-60 one-dose screen, 48 h (100 = growth as untreated, 0 = no growth, -100 = all killed); details: 10 µM unless noted
About 83,000 compounds went through this panel and 20% of them were active in at least one assay; those are over-represented in the sample as a whole. The source made the active and inactive calls. Rule for the calls: active = growth percent below 10; inactive = the rest.
This section presents molecules with their documented growth values.

Solved cases below.
line notation	growth
CSc1nc(Nc2cccc(NC(=O)CCl)c2)c(C#N)c(-c2cccc([N+](=O)[O-])c2)n1	40.7% (inactive)
CC[C@]1(O)C[C@@H]2CN(CCc3c([nH]c4ccccc34)[C@@](C(=O)OC)(c3cc4c(cc3OC)N(C)[C@H]3[C@@](O)(C(N)=O)[C@H](O)[C@]5(CC)[C@@H]6C[C@@H]6CN6CC[C@]43[C@@H]65)C2)C1	19.3% (inactive)
O=C1Nc2cc(-c3ccc(O)cc3)ccc2/C1=C/c1ccc[nH]1	10.8% (inactive)

Now consider a different molecule.
Looking up COc1ccc(O)c(N=Nc2nccs2)c1 , I see its growth listed as 49.4% (inactive)

###

tested on: NCI-H226 lung; experiment: NCI-60 one-dose screen, 48 h (100 = growth as untreated, 0 = no growth, -100 = all killed); details: 10 µM unless noted
The panel holds about 83,000 compounds, 20% with a hit somewhere; the sample as a whole holds those more often.
Items are presented alongside their recorded growth.
Write the answer as a number in %, unit excluded.

Sample records with growth:
> print(dat)
                              line.notation  value.measured
1  COc1ccc(CCNc2nc3c(c(=O)n(Cc4ccc(Br)cc4)c(=O)n3C)n2C)cc1OC            86.6
2  N#Cc1nnn(-c2ccc(S(N)(=O)=O)cc2)c1NC(=O)CCl            95.5
3  COC(=O)c1cccc(NC(=O)c2ccc(-c3cccc(N)c3)o2)c1            85.8
4  COc1cc(-c2ccc3c(c2)NC(=O)/C3=C\c2ccc[nH]2)ccc1O            39.6

Here is the next item to consider.
Measured on NCI-H226 lung, COc1ccc(S(=O)(=O)N2CCCCCC2)cc1NC(=O)c1[nH]c(C)c2c1CCCCC2=O has a documented growth of 45.5

###

system: MOLT-4 leukemia; assay: NCI-60 one-dose screen, 48 h; details: 10 µM unless noted
This is part of a sample that, as a whole, favours compounds with a hit. Of some 83,000 tested, about 20% had one in any assay. Calls of active or inactive are those of the source. Rule for the calls: active = growth percent below 10; inactive = the rest.
Allowed answers: active, inactive

> print(dat)
                                    molecule  experimental.target  category
 1  Cc1cc(C)nc(SC2=C(Nc3cc(Cl)ccc3O)C(=O)N(Cc3ccccc3)C2=O)n1      MOLT-4 leukemia  inactive
 2  Cn1cc(-c2nonc2-c2cn(C)c3ccc(F)cc23)c2cc(F)ccc21      MOLT-4 leukemia  inactive
 3  COc1cc(-c2nc3ccccc3[nH]2)ccc1OCc1nnc(-c2ccc(CC(C)C)cc2)o1      MOLT-4 leukemia  inactive
 4  N#CN1CCC[C@H]1C(=O)N1CCc2c(-c3[nH]nc4ncccc34)cccc21      MOLT-4 leukemia    active
 5  COc1ccc(CCNc2nc3c(c(=O)n(Cc4ccc(Br)cc4)c(=O)n3C)n2C)cc1OC      MOLT-4 leukemia  inactive
 6  COc1cc(-c2nn(-c3ccc(Br)cc3)cc2C(=O)O)ccc1O      MOLT-4 leukemia  inactive
 7  Cc1cc(N2CCN(c3ccnc4cc(Cl)ccc34)CC2)nc(N2CCOCC2)n1      MOLT-4 leukemia  inactive
 8  CSc1nc(NCCN2CCOCC2)c(C#N)c(-c2cccc([N+](=O)[O-])c2)n1      MOLT-4 leukemia  inactive
 9  C(=N/Nc1ncc(-c2cc3cc(-c4ccccc4)ccc3o2)s1)/c1cccs1      MOLT-4 leukemia  inactive
10  C#CC(F)(F)[C@]1(O)CC[C@H]2[C@@H]3CCC4=CC(=O)CCC4=C3[C@@H](c3ccc(C(C)=O)cc3)C[C@@]21C      MOLT-4 leukemia  inactive

So what was the verdict on CC(C)c1c(C(=O)c2ccccc2)c(-c2ccccc2)c(-c2ccc(F)cc2)n1CC[C@@H](O)C[C@@H](O)CC(=O)O in this test?
inactive

Please let me know the test result on file for O=C1NC(=S)N[C@H]1CC(=O)n1cnc2ccccc21 .
inactive

Identify the outcome logged in this assay for the molecule shown: C=C1c2nc3ccccc3n2C=C(c2ccc(OC)cc2)N1Cc1ccccc1
inactive

Hello, I am checking results. What call was entered for NC(=NCCCOc1ccc(Cl)cc1)Nc1ccc(Cl)cc1 ?
active

What did this assay record as the result for CC1=C[C@H]2c3c(c(O)c(O)c4oc(-c5ccccc5)cc(=O)c34)[C@H](c3cc(O)c(O)c4oc(-c5ccccc5)cc(=O)c34)[C@H]2C(C)(C)C1 ?
active

Check the results log: what was the call for Oc1cccc2ccc(N/N=C/c3cc(CN4CCOCC4)c(O)c4ncccc34)nc12 ?
active

###

Tested on: SNB-19 CNS
Experiment: NCI-60 one-dose screen, 48 h
Details: 10 µM unless noted
Method: Growth inhibition of the SNB-19 human tumor cell line is measured as a screen for anti-cancer activity. Cells are grown in 96 well plates and exposed to the test compound for 48 hours. Compounds are tested at a single concentration, which is 10^-5 M for most compounds. The reported endpoint is percent growth (GI% or GIPRCNT), where numbers from 0 - 100% represent growth inhibition, and numbers from -100% - 0 represent cell death. For example, a value of 40 represents 60% growth inhibition. […]
About 83,000 compounds went through this panel and 20% of them were active in at least one assay; those are over-represented in the sample as a whole. Calls of active or inactive are those of the source. How the source made its calls: active means growth percent below 10; inactive means the rest.
Assign a class; possible classes are YES (active), NO (inactive)

Look over these answered cases.
> print(dat)
                                   molecule  category
1  COc1cc2c(cc1OC)C(Sc1ccc(SC)cc1)c1c(nc(N)c(C#N)c1N)O2 (stereo not given)       YES
2  Cc1ccc(C(SCC(N)C(=O)O)(c2ccccc2)c2ccc(C)cc2)cc1 (stereo not given)        NO

Recorded call for C#CCOc1ccc2ncnc(Nc3cccc(CNC(=O)CCl)c3)c2c1 ?
NO

###

test system: UACC-257 melanoma; assay: NCI-60 one-dose screen, 48 h (100 = growth as untreated, 0 = no growth, -100 = all killed); details: 10 µM unless noted
The panel holds about 83,000 compounds, 20% with a hit somewhere; the sample as a whole holds those more often. The source made the active and inactive calls. How the source made its calls: active means growth percent below 10; inactive means the rest.
metric: growth

Recorded results for 4 compounds are shown here.
> print(dat)
                                   compound  experimental.target  metric            value.measured
1  CCCc1cc(=O)n2c(C(=O)Nc3cccc(C(=O)OCC)c3)c(C(=O)Nc3ccc(F)cc3)sc2n1    UACC-257 melanoma  growth  64.5% [30 µM] (inactive)
2  CC1=C(O)C(=O)C(C(C#N)(C#N)C(C#N)C#N)C1 (stereo not given)    UACC-257 melanoma  growth           105% (inactive)
3  Nc1nc2ncc(CCNc3ccc(C(=O)O)cc3)nc2c(=O)[nH]1    UACC-257 melanoma  growth           104% (inactive)
4  O=C(CCCCC(=O)N/N=C\c1ccccc1O)N/N=C\c1ccccc1O    UACC-257 melanoma  growth            26% (inactive)

Now let's try a different one.
Measured growth, COc1cccc(-c2nc3sccn3c2-c2ccnc(NCCCNS(=O)(=O)c3cccc(F)c3)c2)c1 : 20.6% (inactive)

###

system: COLO 205 colon; experiment: NCI-60 one-dose screen, 48 h; details: 10 µM unless noted
Compounds without any hit were thinned out: in the full panel of roughly 83,000, 20% have a hit. Active and inactive are the calls of the source. Rule for the calls: active = growth percent below 10; inactive = the rest.
Please answer using one outcome listed in active, inactive

As a guide, the following entries are already answered.
> print(dat)
                                   compound  category
1      COc1ccc2c(c1)C(=O)/C(=C/c1ccccn1)CC2  inactive
2  COc1ccc(/C=C\c2cc(OC)c(OC)c(OC)c2)cc1OCC(=O)Nc1ccc2nc(C)sc2c1  inactive
3  Cc1ccc(C2=NN3C(C2)c2cc(Br)ccc2OC32CCN(Cc3ccccc3)CC2)o1 (stereo not given)  inactive
4  N#Cc1c(N)n(CCNC(=O)c2ccccc2)c2nc3ccccc3nc12  inactive
5  COc1cccc(/C=C2\SC(=Nc3ccc(NC(C)=O)cc3)NC2=O)c1OC  inactive

Assay result, entry CCc1nc(N)nc(N)c1C#CC(C)c1cc(-c2ccnc(C)c2)c2oc(C)nc2c1 (stereo not given) — outcome?
active

# lookup: test call for O=C(/C=C/C=C/c1ccc2c(c1)OCO2)N/N=C\c1ccc(O)cc1O
inactive
